pest or weed control at 140 g/ha reference
test system: velvetleaf (Abutilon theophrasti); assay: General postemergence herbicidal activity, velvetleaf; type: in vivo; details: post-emergence, 336 h, 140 g ai/ha, postemergence, after 14 d, 0 = no injury, 100 = complete kill, read-out: ABUTH % Visual Injury

>  <COMPOUND>
COc1c(Cl)ccc(-c2cc(N)c(Cl)c(C(=O)N3CCCO3)n2)c1F [Compound 40]

>  <pest or weed control at 140 g/ha, %>
95

$$$$
>  <COMPOUND>
C=CCON(C(C)=O)C(=O)c1nc(-c2ccc(Cl)c(OC)c2F)nc(N)c1C=C [Compound 9]

>  <pest or weed control at 140 g/ha, %>
95

$$$$
>  <COMPOUND>
CC/C=C/CONC(=O)c1nc(-c2ccc(Cl)c(OC)c2F)cc(N)c1Cl [Compound 45]

>  <pest or weed control at 140 g/ha, %>
100

$$$$
>  <COMPOUND>
COc1c(Cl)ccc(-c2cc(N)c(Cl)c(C(=O)NOC(C)(C)C)n2)c1F [Compound 21]

>  <pest or weed control at 140 g/ha, %>
100

$$$$
>  <COMPOUND>
C=CCONC(=O)c1nc(-c2ccc(Cl)c(OC)c2F)nc(N)c1OC [Compound 35]

>  <pest or weed control at 140 g/ha, %>
100

$$$$
>  <COMPOUND>
C=CCONC(=O)c1nc(-c2ccc(Cl)c(OC)c2F)cc(N)c1Cl [Compound 3]

>  <pest or weed control at 140 g/ha, %>
100

$$$$
>  <COMPOUND>
C=CCONC(=O)c1nc(C2CC2)nc(N)c1Cl [Compound 11]

>  <pest or weed control at 140 g/ha, %>
40

$$$$
>  <COMPOUND>
CCONC(=O)c1nc(-c2ccc(Cl)c(OC)c2F)cc(N)c1Cl [Compound 4]

>  <pest or weed control at 140 g/ha, %>
100

$$$$
>  <COMPOUND>
C=CCONC(=O)c1nc(-c2ccc(Cl)c(OC)c2F)nc(N)c1C=C [Compound 10]

>  <pest or weed control at 140 g/ha, %>
100

$$$$
>  <COMPOUND>
COc1c(Cl)ccc(-c2cc(N)c(Cl)c(C(=O)NOCC3=CCCCC3)n2)c1F [Compound 44]

>  <pest or weed control at 140 g/ha, %>
98

$$$$

----------
Test system: velvetleaf (Abutilon theophrasti)
Assay: General postemergence herbicidal activity, velvetleaf
Type: in vivo
Conditions: post-emergence, 336 h, 140 g ai/ha, postemergence, after 14 d, 0 = no injury, 100 = complete kill, read-out: ABUTH % Visual Injury
Method: Seeds or nutlets of the desired test plant species were planted in Sun Gro MetroMix® 360 planting mixture, which typically has a pH of 6.0 to 6.8 and an organic matter content of about 30 percent, in plastic pots with a surface area of 64 square centimeters (cm^2). […] A weighed amount, determined by the highest rate to be tested, of each test compound was dissolved in 4 mL of a 97:3 volume per volume (v/v) mixture of acetone and dimethyl sulfoxide (DMSO) to obtain concentrated stock solutions. […]
EXPERIMENTAL READOUT: pest or weed control at 140 g/ha (%)

>  <COMPOUND>
COc1c(Cl)ccc(-c2nc(C(=O)NOC3CCCCO3)c(Cl)c(N)c2F)c1F (stereo not shown)

>  <EXPERIMENTAL READOUT>
pest or weed control at 140 g/ha

>  <DISPLAY UNIT>
%

>  <EXPERIMENTAL VALUE>
100

$$$$
>  <COMPOUND>
COc1c(Cl)ccc(-c2cc(N)c(Cl)c(C(=O)NOCc3ccoc3)n2)c1F

>  <EXPERIMENTAL READOUT>
pest or weed control at 140 g/ha

>  <DISPLAY UNIT>
%

>  <EXPERIMENTAL VALUE>
95

$$$$
>  <COMPOUND>
COc1c(Cl)ccc(-c2cc(N)c(Cl)c(C(=O)NOC3C=CCCC3)n2)c1F (stereo not shown)

>  <EXPERIMENTAL READOUT>
pest or weed control at 140 g/ha

>  <DISPLAY UNIT>
%

>  <EXPERIMENTAL VALUE>
100

$$$$
>  <COMPOUND>
C=CCON(C)C(=O)c1nc(-c2ccc(Cl)c(OC)c2F)cc(N)c1Cl

>  <EXPERIMENTAL READOUT>
pest or weed control at 140 g/ha

>  <DISPLAY UNIT>
%

>  <EXPERIMENTAL VALUE>
95

$$$$

The reported numbers originate from patent US20130324412A1.
